# TARGET_SYSTEM: Dickkopf-related protein 1 (Homo sapiens)
# TEST_NAME: DKK1 binders on small-molecule microarrays, primary screen, biochemical, small-molecule microarray, 635 nm fluorescence scan (AID 1106);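 note: score merges emission near 667 nm with signal to noise over three replicate slides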
# APPLIED_CONDITIONS: DKK1 binding, higher = more signal
Task for the reader: assign each of the following compounds its reported composite z-score.

Query string: Record request: composite z-score value, item `COc1ccc([Si](C)(C)[C@@H]2[C@@H](CC(=O)N(CCO)Cc3ccccc3)O[C@]3(C(=O)N(C)c4ccccc43)[C@H]2C)cc1`
Result string: 1.32

Query string: Record request: composite z-score value, item `COCCOC(=O)N1C(=O)[C@@]2(c3cc(C#CCNC(N)=O)ccc31)[C@H](C(=O)N1CCc3cc(OC)c(OC)cc3C1)[C@H]1C(=O)O[C@H](c3ccccc3)[C@H](c3ccccc3)N1[C@@H]2c1ccc(OCCO)cc1`
Result string: 0.529

Query string: Record request: composite z-score value, item CN1CCC(CCCO)=CC1c1ccc(CN2CCCC2)cc1 (configuration not stated)
Result string: 1.74

Query string: Record request: composite z-score value, item `CCCCCCc1nc(CCCc2cc3c(c(CCCCCC)n2)[Si](C(C)C)(C(C)C)OC3)cc2c1[Si](C(C)C)(C(C)C)OC2`
Result string: 0.279

Query string: Record request: composite z-score value, item `CC(C)(C)OC(=O)CC[C@]1(C(=O)N2CCCCC2)N=C(c2ccc(OCCCO)cc2)O[C@H]1c1ccccc1N=[N+]=[N-]`
Result string: -0.135

Query string: Record request: composite z-score value, item C=CCC(OC(C)=O)[C@@H]1[C@@H](N(Cc2ccc(-c3cccc(C(F)(F)F)c3)o2)C(=O)c2ccc(C)cc2)c2cc(OCCCO)ccc2N1C(=O)c1ccc(-c2ccccc2)cc1 (some centres not stated)
Result string: -0.0581

Query string: Record request: composite z-score value, item `C=C[C@@H](COC(C)=O)N(Cc1ccccc1[N+](=O)[O-])S(=O)(=O)c1ccc(Br)cc1`
Result string: 1.82
